# System: PC-3 prostate
# method: NCI tumour cell line growth inhibition, 48 h
readout: GI50

Find the recorded GI50 belonging to O=C(Nc1ccc(I)cc1F)c1cc(I)ccc1O and report it. 1140 nM

Then CN1CCN(CCOc2ccc(-c3cnc4c(-c5ccc(F)cc5)cnn4c3)cc2)CC1 ? 1700 nM

Then C1CC[N-]CC1.CC(=N\O)/C(C)=N/O.CC(=N\O)/C(C)=N/O.[CH2-]CCN1CCOCC1.[Co+2] ? > 100000 nM

###

# System: MOLT-4 leukemia
# method: NCI tumour cell line growth inhibition, 48 h; in the data active means GI50 below about 0.43 µM; inactive means the rest
Give your call using only these classes: active, inactive

Answer briefly: the call reported for Nc1c(C(=O)Nc2cccc(Br)c2)sc2nc3c(cc12)C(O)CCC3 (stereo not drawn) in this assay. inactive

Then CCOC(=O)/C(C#N)=C/Nc1ccc(-c2nc3ccccc3[nH]2)cc1 ? inactive

Then CCCn1c(N)c(C(=O)CNc2ccc(I)cc2)c(=O)[nH]c1=O ? active

Then COc1ccc2[nH]c(O)c(/C=c3/cc4c(c(-c5ccc(F)cc5)n3)=Nc3ccccc3-4)c2c1 ? inactive

Then O=c1c2c3c(sc2n2c(-c4ccc(Br)cc4)nnc2n1Cc1ccccc1)CCCC3 ? inactive

Then Cn1ccnc1C[N-]Cc1nccn1C.O=[N+]([O-])[O-].O=[N+]([O-])[O-].[Cu+2] ? inactive

Then OC(COc1cccc2ccccc12)CN1CCN(c2ccccc2Cl)CC1 (stereo not drawn) ? inactive

Then CCCCCCNC(=O)Oc1ccc(/C(=C(\C)c2ccccc2)c2ccc(OCCN(CC)CC)cc2)cc1 ? inactive
